# Test system: SF-539 CNS
# test: NCI-60 one-dose screen, 48 h
# condition_notes: 10 µM unless noted
# Protocol: Cells are grown in 96 well plates and exposed to the test compound for 48 hours. Compounds are tested at a single concentration, which is 10^-5 M for most compounds. The reported endpoint is percent growth (GI% or GIPRCNT), where numbers from 0 - 100% represent growth inhibition, and numbers from -100% - 0 represent cell death. For example, a value of 40 represents 60% growth inhibition. A value of 0 means no net growth occurred over the course of the experiment. […]
About 83,000 compounds went through this panel and 20% of them were active in at least one assay; those are over-represented in the sample as a whole. Activity calls are given as the source filed them. Rule for the calls: active = growth percent below 10; inactive = the rest.
Tick one outcome: True = active, False = inactive

## Input Which outcome was assigned to Cn1cc2c(c1)-c1nc(Nc3ccccc3)ncc1CC2 in this test?
## Output False

## Input Give the logged outcome of this assay for the following molecule: CC(C)C(NC(=O)C1(NC(=O)OCc2ccccc2)CCCC1)C(=O)O (configuration not stated)
## Output False

## Input What did this assay record as the result for CN(C)CCNc1nc2ccccc2c2c1c1c(n2Cc2ccccc2)-c2ccccc2C1=O ?
## Output True

## Input Recorded test call requested for Cc1nn(-c2ccccc2)c(Cl)c1/C=C(/NC(=O)c1ccccc1)c1nc2ccccc2[nH]1
## Output False

## Input Please state the recorded outcome for this molecule: Cc1ccc(N2CCN(C(=S)c3cccs3)CC2)cc1
## Output False

## Input Please share the test call associated with N#CC1=C(c2ccc(Br)cc2)NC(SCC(=O)c2ccc(Br)cc2)NC1=O (configuration not stated) .
## Output False

## Input Hi, do you know how Nc1n[nH]c(-c2cc(Cl)ccc2O)c1-c1ccccc1 came out in this test?
## Output False
